Recorded IC50 by entry
Test system: Plasmodium falciparum
Experiment description: Antimalarial activity against chloroquine-resistant Plasmodium falciparum W2 by LDH assay
Format: functional, organism-based
Particulars: Plasmodium falciparum, W2; read-out: IC50
Readout kind: IC50

COc1cc(NC(C)CCCNC(=O)NC(CCCN)C(=O)NCCCC(C)Nc2cc(OC)cc3cccnc23)c2ncccc2c1.Cl (single isomer, unassigned; 40) : 2.8 µg/mL
COc1cc(NC(C)CCCNC(=O)c2ccncc2C(=O)NCCCC(C)Nc2cc(OC)cc3ccc(C(C)(C)C)nc23)c2nc(C(C)(C)C)ccc2c1.Cl (centres undefined) : 0.87 µg/mL
COc1cc(NC(C)CCCNC(=O)c2cccc(C(=O)NCCCC(C)Nc3cc(OC)cc4cccnc34)n2)c2ncccc2c1.Cl (centres undefined) : 2.3 µg/mL
COc1cc(NC(C)CCCNC(=O)NC(=O)NCCCC(C)Nc2cc(OC)cc3cccnc23)c2ncccc2c1.Cl.Cl (centres undefined) : 3.4 µg/mL
COc1cc(NC(C)CCCNC(=O)c2cncc(C(=O)NCCCC(C)Nc3cc(OC)cc4cccnc34)c2)c2ncccc2c1.Cl (centres undefined) : 3 µg/mL
COc1cc(NC(C)CCCNC(=O)NCCCC(C)Nc2cc(OC)cc3cccnc23)c2ncccc2c1.Cl.Cl (centres undefined) : 4.76 µg/mL
COc1cc(NC(C)CCCNC(=O)NC(CCCCN)C(=O)NCCCC(C)Nc2cc(OC)cc3cccnc23)c2ncccc2c1.Cl (single isomer, unassigned) : 2.7 µg/mL
CCCCCOc1c(OC)cc(NC(C)CCCNC(=S)NCCCC(C)Nc2cc(OC)c(OCCCCC)c3c(CC)ccnc23)c2nccc(CC)c12.Cl.Cl (centres undefined) : 4.76 µg/mL
COc1cc(NC(C)CCCNC(=O)CC[C@H](N)C(=O)NCCCC(C)Nc2cc(OC)cc3ccc(C(C)(C)C)nc23)c2nc(C(C)(C)C)ccc2c1.Cl (some centres undefined) : 2.3 µg/mL
COc1cc(NC(C)CCCNC(=O)C[C@H](N)C(=O)NCCCC(C)Nc2cc(OC)cc3cccnc23)c2ncccc2c1.Cl (some centres undefined) : 3.8 µg/mL
COc1cc(NC(C)CCCNCCNCCNCCCC(C)Nc2cc(OC)cc3cccnc23)c2ncccc2c1.Cl.Cl (centres undefined) : 1.5 µg/mL
COc1cc(NC(C)CCCNSC(=O)NCCCC(C)Nc2cc(OC)cc3cccnc23)c2ncccc2c1.Cl.Cl (centres undefined) : 4.76 µg/mL
COc1cc(NC(C)CCCNC(=O)NC(CCCN)C(=O)NCCCC(C)Nc2cc(OC)cc3cccnc23)c2ncccc2c1.Cl (single isomer, unassigned; 37) : 2 µg/mL
COc1cc(NC(C)CCCNC(=O)N[C@H](CCCN)C(=O)NCCCC(C)Nc2cc(OC)cc3ccc(C(C)(C)C)nc23)c2nc(C(C)(C)C)ccc2c1.Cl (some centres undefined) : 0.3 µg/mL
COc1cc(NC(C)CCCNC(=S)NCCCC(C)Nc2cc(OC)cc3ccc(C(C)(C)C)nc23)c2nc(C(C)(C)C)ccc2c1.Cl.Cl (centres undefined) : 2.3 µg/mL
COc1cc(NC(C)CCCNC(=O)NC(CCCNC(=N)N)C(=O)NCCCC(C)Nc2cc(OC)cc3cccnc23)c2ncccc2c1.Cl (single isomer, unassigned; 39) : 1.5 µg/mL
CCCCCOc1c(OC)cc(NC(C)CCCNC(=O)NCCCC(C)Nc2cc(OC)c(OCCCCC)c3c(CC)ccnc23)c2nccc(CC)c12.Cl.Cl (centres undefined) : 1.3 µg/mL
COc1cc(NC(C)CCCNC(=O)c2ccncc2C(=O)NCCCC(C)Nc2cc(OC)cc3cccnc23)c2ncccc2c1.Cl (centres undefined) : 1.7 µg/mL
COc1cc(NC(C)CCCNC(=O)NC(CCCCN)C(=O)NCCCC(C)Nc2cc(OC)cc3ccc(C(C)(C)C)nc23)c2nc(C(C)(C)C)ccc2c1.Cl (single isomer, unassigned) : 1.3 µg/mL
